FLIPR A549 cells IC50: recorded values
- measured-on: T1, Human PAR-2 on cells (human, UniProt P55085 26-397)
- T1 sequence: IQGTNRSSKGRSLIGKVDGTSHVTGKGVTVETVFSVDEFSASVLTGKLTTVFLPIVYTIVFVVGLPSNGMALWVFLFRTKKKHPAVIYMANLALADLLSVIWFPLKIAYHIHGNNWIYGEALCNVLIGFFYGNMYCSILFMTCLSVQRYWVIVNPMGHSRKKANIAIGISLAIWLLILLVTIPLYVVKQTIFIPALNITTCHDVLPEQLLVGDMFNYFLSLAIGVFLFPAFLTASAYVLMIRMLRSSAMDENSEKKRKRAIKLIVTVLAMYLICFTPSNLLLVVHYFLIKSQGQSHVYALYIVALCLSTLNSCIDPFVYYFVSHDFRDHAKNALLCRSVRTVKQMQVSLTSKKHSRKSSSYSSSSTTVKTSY
- protocol-text: cell-based or functional assay
The response must be a number in nM with no trailing unit.

binder	unit-descriptor	FLIPR A549 cells IC50
Ab5150 IgG4_Pro (cross-cloned: light chain of Ab4999 with heavy chain of Ab5003) (antibody, V domains shown, IgG4_Pro format) VH: QVQLVESGGGLVQPGGSLRLSCAASGFTFSSYAMNWVRQAPGKGLEWVSAISYKGHLTGYADSVKGRFTISRDNSKNTLYLQMNSLRAEDTAVYYCARIQNDPMDVWGQGTLVTVSS VL: DIELTQPPSVSVAPGQTARISCSGDNLGKKYVQWYQQKPGQAPVLVIYDDSNRPSGIPERFSGSNSGNTATLTISGTQAEDEADYYCQTWDYSSIRDETNVFGGGTKLTVLG	nM	2.3

// FLIPR A549 cells IC50 value for Ab4997 IgG4_Pro (antibody, V domains shown, IgG4_Pro (human IgG4 constant regions, Ser241Pro hinge), lambda; also called IgG4p Ab4997) VH: QVQLVESGGGLVQPGGSLRLSCAASGFTFSSYAMNWVRQAPGKGLEWVSAISYNGKLKGYADSVKGRFTISRDNSKNTLYLQMNSLRAEDTAVYYCARIQNDPMDVWGQGTLVTVSS VL: DIELTQPPSVSVAPGQTARISCSGDNLGKKYVQWYQQKPGQAPVLVIYDDSNRPSGIPERFSGSNSGNTATLTISGTQAEDEADYYCSSWDVGSDGWVFGGGTKLTVLG : 2.4

// FLIPR A549 cells IC50 value for Ab5007 IgG4_Pro (antibody, V domains shown, IgG4_Pro (human IgG4 constant regions, Ser241Pro hinge), lambda; also called IgG4p Ab5007) VH: QVQLVESGGGLVQPGGSLRLSCAASGFTFSSYAMNWVRQAPGKGLEWVSAISFSGHLTGYADSVKGRFTISRDNSKNTLYLQMNSLRAEDTAVYYCARIQNDPMDVWGQGTLVTVSS VL: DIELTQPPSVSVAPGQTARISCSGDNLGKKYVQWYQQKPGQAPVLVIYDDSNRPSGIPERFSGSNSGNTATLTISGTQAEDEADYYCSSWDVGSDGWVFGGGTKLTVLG : 3.7
